tested on: Salmonella enterica; assay: Antimicrobial broth microdilution; type: cell-based; conditions: S. enterica
# reported IC50; entries follow

CC(C)C1=CC23CCC4C(C)(C(=O)O)CCCC4(C)C2CC1c1c(OCCC#N)ccc(OCCC#N)c13 (stereo not shown) | > 256 µg/mL
C#CCOC(=O)C1(C)CCCC2(C)C1CCC13C=C(C(C)C)C(CC12)c1c(O)cc2c(C(=O)OC)c(C)[nH]c2c13 (stereo not shown) | > 256 µg/mL
C#CCOC(=O)C1(C)CCCC2(C)C1CCC13C=C(C(C)C)C(CC12)C1=C3C(=O)C=CC1=O (stereo not shown) | > 256 µg/mL

Quick check: IC50 of `Cc1[nH]c2c3c(c(O)cc2c1CO)[C@H]1C[C@@H]2[C@@]4(C)CCC[C@@](C)(CO)[C@@H]4CC[C@@]32C=C1C(C)C` ? > 256 µg/mL

* * *

biological target: yeast α-GLy (α-glucosidase, Sigma G0660) (Saccharomyces cerevisiae, UniProt P53341); construct: purchased Sigma G0660; assay: biochemical; type: biochemical; conditions: yeast α-glucosidase, 37°C, pH 6.8; read-out: IC50 ± SE, α-glucosidase inhibition
Sequence (P53341 whole entry): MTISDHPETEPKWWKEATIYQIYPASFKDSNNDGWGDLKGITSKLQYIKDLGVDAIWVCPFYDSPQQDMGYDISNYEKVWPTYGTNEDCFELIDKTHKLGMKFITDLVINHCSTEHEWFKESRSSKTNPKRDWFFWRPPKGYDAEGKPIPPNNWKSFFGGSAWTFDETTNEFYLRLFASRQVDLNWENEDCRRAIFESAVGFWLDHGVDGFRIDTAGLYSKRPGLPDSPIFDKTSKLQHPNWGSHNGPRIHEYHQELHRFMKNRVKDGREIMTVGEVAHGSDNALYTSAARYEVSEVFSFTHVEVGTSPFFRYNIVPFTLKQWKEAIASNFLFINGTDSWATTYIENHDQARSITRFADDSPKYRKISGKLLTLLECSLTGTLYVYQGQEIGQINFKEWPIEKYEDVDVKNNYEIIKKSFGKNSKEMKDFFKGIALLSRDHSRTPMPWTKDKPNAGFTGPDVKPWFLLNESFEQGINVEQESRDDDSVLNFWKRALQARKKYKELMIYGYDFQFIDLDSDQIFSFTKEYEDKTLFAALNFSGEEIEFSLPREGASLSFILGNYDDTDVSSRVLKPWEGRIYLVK
# if measured IC50 < 8 µM: rule met  # else: rule not met

Examples from the recorded data:
COC(=O)[C@]1(C)CCC[C@]2(C)[C@H]3C[C@H]4C(C(C)C)=C[C@]3(CC[C@H]21)[C@@H]1C(=O)C(=Cc2ccco2)C[C@H](O)[C@@H]14 | rule met
COC(=O)[C@]1(C)CCC[C@]2(C)[C@H]3C[C@H]4C(C(C)C)=C[C@]3(CC[C@H]21)[C@@H]1C(=O)C(=Cc2ccc(OC)cc2)C[C@H](O)[C@@H]14 | rule met
C#CCOC(=O)C1(C)CCCC2(C)C1CCC13C=C(C(C)C)C(CC12)c1c(O)cc2c(C(=O)OC)c(C)[nH]c2c13 (stereo not shown) | rule met
COC(=O)[C@]1(C)CCC[C@]2(C)[C@H]3C[C@@H]4[C@H]5[C@@H]6CC(=Cc7ccc(OC)c(OC)c7)C(=O)[C@H]5[C@@]3(CC[C@H]21)C[C@@]4(C(C)C)O6 | rule not met
Cc1[nH]c2c3c(c(O)cc2c1CO)[C@H]1C[C@@H]2[C@@]4(C)CCC[C@@](C)(CO)[C@@H]4CC[C@@]32C=C1C(C)C | rule met
COC(=O)c1c(C)[nH]c2c3c(c(O)cc12)[C@H]1C[C@@H]2[C@@]4(C)CCC[C@@](C)(C(=O)OC)[C@@H]4CC[C@@]32C=C1C(C)C | rule not met
COC(=O)[C@]1(C)CCC[C@]2(C)[C@H]3C[C@@H]4[C@H]5[C@@H]6CC(=Cc7ccccc7)C(=O)[C@H]5[C@@]3(CC[C@H]21)C[C@@]4(C(C)C)O6 | rule not met
COC(=O)c1c(C)[nH]c2c3c(c(OC(C)=O)cc12)[C@H]1C[C@@H]2[C@@]4(C)CCC[C@@](C)(C(=O)OC)[C@@H]4CC[C@@]32C=C1C(C)C | rule met
COC(=O)[C@]1(C)CCC[C@]2(C)[C@H]3C[C@@H]4[C@H]5[C@@H]6CC(=Cc7cccnc7)C(=O)[C@H]5[C@@]3(CC[C@H]21)C[C@@]4(C(C)C)O6 | rule not met
CC(C)C1=C[C@@]23CC[C@@H]4[C@](C)(CCC[C@@]4(C)C(=O)NCCCCNCCCN)[C@H]2C[C@@H]1[C@H]1C(=O)CCC(=O)[C@H]13 | rule not met

# TODO verify IC50 < 8 µM strictly for this molecule: `COC(=O)[C@]1(C)CCC[C@]2(C)[C@H]3C[C@@H]4[C@H]5[C@@H]6CC(=Cc7ccco7)C(=O)[C@H]5[C@@]3(CC[C@H]21)C[C@@]4(C(C)C)O6` rule met

Could you please tell me whether IC50 recorded for `COC(=O)[C@]1(C)CCC[C@]2(C)[C@H]3C[C@@H]4[C@H]5[C@@H]6CC(=Cc7ccc(OC)cc7)C(=O)[C@H]5[C@@]3(CC[C@H]21)C[C@@]4(C(C)C)O6` is less than 8 µM? rule not met
